# Test system: anti-Chlamydia abzymes
# Format: biochemical, human
# TEST_CONDITIONS: 10 μM of each agent
MEASURED_QUANTITY: Result (inhibition of abzymes)

CC(C)(S)[C@@H](N)C(=O)O [Penicillamine]    Positive
O=C(O)c1ccccn1 [Picolinic acid]    Positive
CC(=O)Oc1ccccc1C(=O)O [Aspirin, acetylsalicylic acid]    Positive
